The following molecules are shown together with reported CC50 values.
# Protocol summary: Cytotoxicity against human HuhET cells by [3H]thymidine incorporation assay
# Type: cell-based

Answered examples (4):
{"Compound smiles": "COC(=O)N[C@H](C(=O)N1C[C@@H](C)C[C@H]1c1ncc(-c2ccc(-c3ccc(-c4cc5[nH]c([C@@H]6C[C@H](C)CN6C(=O)[C@@H](NC(=O)OC)C(C)C)nc5s4)cc3)c(F)c2)[nH]1)C(C)C", "CC50": "3.1 µM"}
{"Compound smiles": "COC(=O)N[C@H](C(=O)N1C[C@@H](C)C[C@H]1c1ncc(-c2ccc(-c3ccc(-c4cc5[nH]c([C@@H]6C[C@H](C)CN6C(=O)[C@@H](NC(=O)OC)C(C)C)nc5s4)cc3)cc2F)[nH]1)C(C)C", "CC50": "> 20 µM"}
{"Compound smiles": "COC(=O)N[C@H](C(=O)N1C[C@@H](C)C[C@H]1c1nc2cc(-c3ccc(-c4cc5[nH]c([C@@H]6C[C@H](C)CN6C(=O)[C@@H](NC(=O)OC)C(C)C)nc5s4)cc3)ccc2[nH]1)C(C)C", "CC50": "> 20 µM"}
{"Compound smiles": "COC(=O)N[C@H](C(=O)N1C[C@@H](C)C[C@H]1c1ncc(-c2csc3ccc(-c4ccc(-c5cc6[nH]c([C@@H]7C[C@H](C)CN7C(=O)[C@@H](NC(=O)OC)C(C)C)nc6s5)cc4)cc23)[nH]1)C(C)C", "CC50": "16.4 µM"}

Short answer for `COC(=O)N[C@H](C(=O)N1C[C@@H](C)C[C@H]1c1nc2cc(C#Cc3ccc(-c4cc5[nH]c([C@@H]6C[C@H](C)CN6C(=O)[C@@H](NC(=O)OC)C(C)C)nc5s4)cc3)ccc2[nH]1)C(C)C` : CC50 was > 20 µM

The value of CC50 measured for the molecule `COC(=O)N[C@H](C(=O)N1C[C@@H](C)C[C@H]1c1nc2cc(/C=C/c3ccc(-c4cc5[nH]c([C@@H]6C[C@H](C)CN6C(=O)[C@@H](NC(=O)OC)C(C)C)nc5s4)cc3)ccc2[nH]1)C(C)C` turned out to be > 20 µM

Record summary for `COC(=O)N[C@H](C(=O)N1C[C@@H](C)C[C@H]1c1ncc(-c2ccc(-c3ccc(-c4cc5[nH]c([C@@H]6C[C@H](C)CN6C(=O)[C@@H](NC(=O)OC)C(C)C)nc5s4)cc3)cc2C)[nH]1)C(C)C` : reported CC50 = > 20 µM
